This collection of values is drawn from ChEMBL document CHEMBL1687690.

Measured On: Histone deacetylase
Method Summary: Inhibition of HDAC activity in human NB4 cells assessed as acetylation of histone H4 after 24 hrs by Western blot analysis
Format: cell-based
Run Parameters: nb-4
Measured Endpoint: EC50 (nM)

# example entries with known answers
O=C(CCCCCN1C(=O)c2ccccc2Nc2ccccc21)NO	1530
CN1c2ccccc2C(=O)N(CCCCCC(=O)NO)c2ccccc21	2950
COc1ccc2c(c1)N(CCCCCC(=O)NO)C(=O)c1ccccc1O2	320
O=C(CCCCCN1C(=O)c2ccccc2S(=O)(=O)c2ccccc21)NO	720
COc1ccc2c(c1)N(CCCCCC(=O)NO)C(=O)c1ccccc1S2	150

[a] O=C(CCCCCN1C(=O)c2ccccc2Oc2ccc(Cl)cc21)NO
[b] COc1ccc2c(c1)N(CCCCCC(=O)NO)C(=O)c1ccccc1N2
INPUT: Among a and b , whose measured EC50 is the smaller figure? Pick one and reply with its label.
OUTPUT: b

[1] COc1ccc2c(c1)N(CCCCCC(=O)NO)C(=O)c1ccccc1S2(=O)=O
[2] O=C(CCCCCN1C(=O)c2ccccc2Nc2ccc(Cl)cc21)NO
[3] O=C(CCCCCN1C(=O)c2ccccc2S(=O)(=O)c2ccc(Cl)cc21)NO
INPUT: Returns the items ordered by EC50, from maximum to minimum. Answer format: list of labels, ordered as asked.
OUTPUT: 2, 1, 3

[P] O=C(CCCCCN1C(=O)c2ccccc2Sc2ccc(Cl)cc21)NO
[Q] O=C(CCCCCN1C(=O)c2ccccc2Oc2ccccc21)NO
INPUT: Larger number for EC50: P , or Q ? Please respond with the label that marks your chosen entry.
OUTPUT: Q

----------
Tested on: NB-4
Method Summary: Potentiation of all-trans retinoic acid-induced human NB4 cells differentiation after 72 hrs by NBT-reductase activity assay relative HDAC inhibitor alone
Type: functional
Measured Endpoint: Ratio
Simply state the number, no unit and no words.

Recorded results for 3 molecules are shown here.
O=C(CCCCCN1C(=O)c2ccccc2Nc2ccccc21)NO	6
O=C(CCCCCN1C(=O)c2ccccc2S(=O)(=O)c2ccc(Cl)cc21)NO	56
O=C(CCCCCN1C(=O)c2ccccc2Oc2ccccc21)NO	2

INPUT: // returns reported Ratio for input COc1ccc2c(c1)N(CCCCCC(=O)NO)C(=O)c1ccccc1N2
OUTPUT: 1

INPUT: Request the reported Ratio associated with CN1c2ccccc2C(=O)N(CCCCCC(=O)NO)c2ccccc21
OUTPUT: 13

INPUT: # input molecule: O=C(CCCCCN1C(=O)c2ccccc2Sc2ccccc21)NO ; wanted: its Ratio
OUTPUT: 5

INPUT: Reported Ratio for COc1ccc2c(c1)N(CCCCCC(=O)NO)C(=O)c1ccccc1S2 : what is it?
OUTPUT: 16

INPUT: Find the recorded Ratio belonging to O=C(CCCCCN1C(=O)c2ccccc2S(=O)(=O)c2ccccc21)NO and report it.
OUTPUT: 14

----------
Measured On: Histone deacetylase (Homo sapiens) (UniProt Q13547+O15379+Q9UBN7+Q92769+Q9UQL6+Q8WUI4+Q9BY41+Q96DB2+P56524+Q9UKV0+Q969S8)
Method Summary: Inhibition of HDAC activity in human NB4 cells assessed as maximum acetylated tubulin at EC50 concentration after 24 hrs by Western blot analysis relative to control
Assay type: cell-based
Run Parameters: NB-4
Measured Endpoint: Ratio

COc1ccc2c(c1)N(CCCCCC(=O)NO)C(=O)c1ccccc1S2	47
O=C(CCCCCN1C(=O)c2ccccc2S(=O)(=O)c2ccc(Cl)cc21)NO	8850
O=C(CCCCCN1C(=O)c2ccccc2S(=O)(=O)c2ccccc21)NO	10700

[I] O=C(CCCCCN1C(=O)c2ccccc2Sc2ccc(Cl)cc21)NO
[II] O=C(CCCCCN1C(=O)c2ccccc2Nc2ccc(Cl)cc21)NO
INPUT: Smaller Ratio value? Options are I and II Write the label of whichever entry you select.
OUTPUT: II

[A] O=C(CCCCCN1C(=O)c2ccccc2Nc2ccccc21)NO
[B] O=C(CCCCCN1C(=O)c2ccccc2Sc2ccccc21)NO
INPUT: Select one. Lower Ratio: A or B Give the label under which the chosen entry appears.
OUTPUT: A
(A: 402, B: 2000)
